tested on: NCI-H460 lung; experiment: NCI tumour cell line growth inhibition, 48 h
Here, each record is paired with measured TGI data.

# count of solved cases: 10
{"COMPOUND": "CNc1ncc2cc(Oc3ccc(F)cc3F)c(=O)n(C)c2n1", "MEASURED_TARGET": "NCI-H460 lung", "TEST_RESULT": "> 25 µM"}
{"COMPOUND": "Cn1c(=O)sc2cc(C(=S)N3CCN(c4ccccc4)CC3)ccc21", "MEASURED_TARGET": "NCI-H460 lung", "TEST_RESULT": "> 100 µM"}
{"COMPOUND": "COc1cc2c(Cc3cc(OCc4ccccc4)ccc3N)nccc2c(OC)c1OC", "MEASURED_TARGET": "NCI-H460 lung", "TEST_RESULT": "> 10 µM"}
{"COMPOUND": "Cc1nc(N(CCO)CCO)c2sc(=S)n(-c3ccccc3)c2n1", "MEASURED_TARGET": "NCI-H460 lung", "TEST_RESULT": "> 100 µM"}
{"COMPOUND": "Cc1ccc(-n2cc(-c3ccc(Cl)cc3)c3c2N=CN2NC(c4cccs4)=NC32)cc1 (centres undefined)", "MEASURED_TARGET": "NCI-H460 lung", "TEST_RESULT": "19.2 µM"}
{"COMPOUND": "CCOP(=O)(OCC)C(=C1C=C(C(C)(C)C)C(=O)C(C(C)(C)C)=C1)P(=O)(OCC)OCC", "MEASURED_TARGET": "NCI-H460 lung", "TEST_RESULT": "> 10 µM"}
{"COMPOUND": "Cc1[nH]c2ccccc2c1C1=CC(=O)N(c2ccccc2)C1=O", "MEASURED_TARGET": "NCI-H460 lung", "TEST_RESULT": "39.4 µM"}
{"COMPOUND": "NS(=O)(=O)c1ccc(NC(=O)c2cccc3c(Nc4ccc(S(N)(=O)=O)cc4)c4ccccc4nc23)cc1", "MEASURED_TARGET": "NCI-H460 lung", "TEST_RESULT": "> 100 µM"}
{"COMPOUND": "CN(C)CC1=Nc2cccc3cccc(c23)N1", "MEASURED_TARGET": "NCI-H460 lung", "TEST_RESULT": "> 100 µM"}
{"COMPOUND": "CC1=C(C)C(=O)C(C2=C(C3=CC(=O)C(C)=C(C)C3=O)C(=O)c3ccccc3C2=O)=CC1=O", "MEASURED_TARGET": "NCI-H460 lung", "TEST_RESULT": "37.7 µM"}

Task: Given COc1ccc(C2C(Cl)C(=O)N2NC(=O)c2ccccc2O)cc1OC (centres undefined) , respond with its TGI.
Result: > 100 µM

Task: Given `Cc1cc(Cl)ccc1NC(=O)C(=O)Cc1occc(=O)c1O` , respond with its TGI.
Result: > 100 µM

Task: Given COC(=O)C1=C(O)C(C(=O)OC)[C@@]2(O)[C@@H](C(=O)OC)CC[C@@H]1[C@@H]2C(=O)OC (some centres undefined) , respond with its TGI.
Result: 35.9 µM

Task: Given CC(=O)O[C@H]1CC[C@@]2(C)C(=C/C(=N\[N+](=O)[O-])[C@H]3C4CCC([C@H](C)CCCC(C)C)[C@@]4(C)CCC32)C1 (some centres undefined) , respond with its TGI.
Result: > 100 µM

Measured values drawn from PubChem BioAssay (NCI) for this set.
